target: Human immunodeficiency virus type 1 protease (Human immunodeficiency virus 1, UniProt Q72874)
pKi: −log10 of the molar value.
MEASUREMENT LABEL: pKi

{"columns": ["COMPOUND", "MEASUREMENT LABEL", "OBSERVED RESULT"],
 "data": [
  ["CCC(c1ccccc1)c1c(O)c2c(oc1=O)CCC2 (configuration not stated)", "pKi", 6.15],
  ["CCC(C1=C(O)C2CCCCC2OC1=O)c1cccc(NS(=O)(=O)c2ccc(C#N)cn2)c1 (configuration not stated)", "pKi", 10.30],
  ["CCC(C1=C(O)OC2CCCCCCC2C1=O)c1ccccc1 (configuration not stated)", "pKi", 5.92],
  ["CCC(C1=C(O)OC2CCCCC2C1=O)c1ccccc1 (configuration not stated)", "pKi", 6.17],
  ["CCC(C1=C(O)OC2CCCCC2C1=O)c1cccc(NS(=O)(=O)c2ccc(C#N)cc2)c1 (configuration not stated)", "pKi", 7.82],
  ["CCC(c1ccccc1)c1c(O)c2ccccc2oc1=O (configuration not stated)", "pKi", 6.10]
]}

(I) CC(C)(C)C(C1=C(O)OC2CCCCCCC2C1=O)c1cccc(NS(=O)(=O)c2ccc(C#N)cc2)c1 (configuration not stated)
(II) CCC(c1cccc(NS(=O)(=O)c2ccc(C#N)cn2)c1)c1c(O)c2c(oc1=O)CCC2 (configuration not stated)
(III) CCC(c1ccccc1)c1c(O)c2c(oc1=O)CCCC2 (configuration not stated)
Order the 3 compounds from highest to lowest pKi. Hello, could you send the labels back in the order asked? Thank you.
II, I, III

====

test system: H9; test: Effective dose for antiviral activity against HIV-1-infected H-9 cells; type: functional; conditions: Homo sapiens, read-out: ED50 (the source's name)
pEC50: −log10 of the molar value.
MEASUREMENT LABEL: pEC50

(P) CCC(C1=C(O)C2CCCCC2OC1=O)c1cccc(NS(=O)(=O)c2ccc(C#N)cn2)c1 (stereo not drawn)
(Q) CC(C)(C)C(C1=C(O)OC2CCCCCCC2C1=O)c1cccc(NS(=O)(=O)c2ccc(C#N)cc2)c1 (stereo not drawn)
(R) CCC(c1cccc(NS(=O)(=O)c2ccc(C#N)cn2)c1)c1c(O)c2c(oc1=O)CCC2 (stereo not drawn)
List the 3 entries from lowest pEC50 to highest pEC50 value. Hello, could you send the labels back in the order asked? Thank you.
R, Q, P

====

biological target: Human immunodeficiency virus type 1 protease (Human immunodeficiency virus 1)
MEASUREMENT LABEL: Ki

Which Ki is listed for CCC(C1=C(O)OC2CCCCCC2C1=O)c1ccccc1 (stereo not drawn) ?
> 1200 nM

Subsequent entry: CCC(C1=C(O)OC2CCCC2C1=O)c1ccccc1 (stereo not drawn)
> 2000 nM

Subsequent entry: CCC(c1ccccc1)c1c(O)c2c(oc1=O)CCCCCCC2 (stereo not drawn)
> 2000 nM
